Hi there, I'd appreciate the recorded pEC50 for every entry that follows.
# target_or_system: NL20 human bronchial epithelial cells expressing human Z-AAT (Homo sapiens, UniProt P01009, E366K)
# Construct: doxycycline added with compounds)
# Sequence (P01009 25-418 E366K): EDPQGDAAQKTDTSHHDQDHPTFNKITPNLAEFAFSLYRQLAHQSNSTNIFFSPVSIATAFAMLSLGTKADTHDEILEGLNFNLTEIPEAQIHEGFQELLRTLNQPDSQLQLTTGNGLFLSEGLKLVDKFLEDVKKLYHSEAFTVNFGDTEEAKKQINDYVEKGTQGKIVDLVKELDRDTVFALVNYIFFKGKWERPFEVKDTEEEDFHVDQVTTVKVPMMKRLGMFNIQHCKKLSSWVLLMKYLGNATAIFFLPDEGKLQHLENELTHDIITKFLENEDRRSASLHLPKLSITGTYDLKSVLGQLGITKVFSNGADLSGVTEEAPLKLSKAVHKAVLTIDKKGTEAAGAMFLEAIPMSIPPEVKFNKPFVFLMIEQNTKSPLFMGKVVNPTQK
# experiment_summary: AAT Function Assay (MSD Assay NL20-SI Cell Line)
# setup_conditions: read-out: NL20 Functional EC50
pEC50: −log10 of the molar value.

# pEC50 lookup, item CC(c1c(-c2ccc(C(=O)O)cc2)c2c(O)cccc2n1-c1ccc(F)cc1)C1CCOC1 (single isomer, unassigned) [Compound 210]
> 6.30

Same again, this time with Cc1cc(-n2c(C3CCOCC3)c(C3CC4(CC(C(=O)O)C4)C3)c3cc(F)ccc32)ccc1F (single isomer, unassigned) [Compound W18]
< 5.70

Same again, this time with `CC(C)(CCO)c1c(-c2ccc(C(=O)O)cc2)c2c(O)cc(F)cc2n1-c1ccc(F)c(F)c1`
> 6.30

Same again, this time with `CCN(CC)C(=O)OCC(C)(C)c1c(-c2ccc(C(=O)O)cc2)c2c(O)c(F)ccc2n1-c1ccc(F)c(C)c1`
> 6.30

Same again, this time with `CC(C)(CO)c1c(-c2ccc(C(=O)O)cc2)c2c(O)cc(Cl)cc2n1-c1ccc(F)cc1`
> 6.30

Same again, this time with `CC(C)(CC#N)c1c(-c2ccc(C(=O)O)cc2)c2c(O)cc(C3CC3)cc2n1-c1ccc(F)c(F)c1`
5.70 to 6.30

Same again, this time with CCS(=O)(=O)N1CCCC(c2c(-c3ccc(C(=O)O)cc3)c3c(O)cccc3n2-c2ccc(F)cc2)C1 (stereo not shown)
< 5.70

====

# target_or_system: purified Z-AAT protein (Homo sapiens, UniProt P01009, E366K)
# Construct: Purified Z-AAT protein from human plasma
# Sequence (P01009 25-418 E366K): as above
# experiment_summary: Biochemical Assay (Z-AAT Elastase Activity Assay)
# setup_conditions: purified Z-AAT pre-incubated with compound 1 hour, then hNE; N.D. = activity not detected up to 30 μM
Hi there, I'd appreciate the recorded IC50 for every entry that follows.

# IC50 lookup, item COCC1(c2c(-c3ccc(C(=O)O)cc3)c3c(O)cccc3n2-c2ccc(F)c(F)c2)COC1 [Compound 258]
> 30 µM

Same again, this time with COCC(C)(C)c1c(-c2ccc(C(=O)O)cc2)c2c(O)c(F)ccc2n1-c1ccc(F)cc1 [Compound 161]
< 2 µM

Same again, this time with CC(C)(c1cnco1)c1c(-c2ccc(C(=O)O)cc2)c2c(O)cccc2n1-c1ccc(F)cc1 [Compound 132]
< 2 µM

Same again, this time with COCC(C)(C)c1c(-c2ccc(C(=O)O)cn2)c2c(O)cc(F)cc2n1-c1ccc(F)c(C)c1 [Compound 352]
> 5 µM

Same again, this time with CCC1(c2c(-c3ccc(C(=O)O)cc3)c3c(O)cc(Cl)cc3n2-c2ccc(F)c(F)c2)COC1 [Compound 256]
< 2 µM

Same again, this time with Cc1cc(-n2c(C3(C)COC3)c(-c3ccc(C(=O)O)cc3)c3c(O)cc(F)cc32)ccc1F [Compound 318]
2 to 5 µM

Same again, this time with O=C(O)c1c(F)cc(-c2c(C3CCOCC3)n(-c3ccc(F)cc3)c3cccc(O)c23)cc1F [Compound 80]
> 30 µM

====

# target_or_system: purified Z-AAT protein (Homo sapiens, UniProt P01009, E366K)
# Construct: Purified Z-AAT protein from human plasma
# experiment_summary: Biochemical Assay (Z-AAT Elastase Activity Assay)
# setup_conditions: purified Z-AAT pre-incubated with compound 1 hour, then hNE; N.D. = activity not detected up to 30 μM
measured_quantity: IC50

# IC50 lookup, item `CC(C)c1c(-c2cnc(C(=O)O)c(F)c2)c2c(O)cccc2n1-c1ccc(F)cc1`
> 30 µM

Same again, this time with `CCC1(c2c(-c3ccc(C(=O)O)c(C)c3)c3c(O)cc(F)cc3n2-c2ccc(F)c(C)c2)COC1`
> 30 µM

Same again, this time with `Cc1cc(-n2c(C(C)(C)COC(=O)NC(C)C)c(-c3ccc(C(=O)O)cc3)c3c(O)c(F)ccc32)ccc1F`
> 5 µM

Same again, this time with `CCC1(c2c(-c3ccc(C(=O)O)cc3)c3c(O)c(F)c(F)cc3n2-c2ccc(F)c(C)c2)COC1`
< 2 µM

Attribution: patent US20230159502A1
